target: Acetylcholinesterase (Homo sapiens); assay: Inhibition of human plasma AChE using acetylthiocholine iodide as substrate preincubated for 15 mins followed by substrate addition and measured after 10 mins by Ellman's method
Outcome Measure: IC50 (µM)

>>> test_result("CN(C)CCCC1(c2ccc(F)cc2)OCc2cc(C#N)ccc21 (centres undefined)")
73.3
>>> test_result("Cc1ccc(C(=O)N2CCN(CC(=O)N3CCN(CCCc4c[nH]c5ccccc45)CC3)CC2)cc1")
29.4
>>> test_result("COc1cccc(C(=O)N2CCN(CC(=O)N3CCN(CCCc4c[nH]c5ccc(F)cc45)CC3)CC2)c1")
19.4
>>> test_result("O=C(CN1CCN(C(=O)c2ccccc2Br)CC1)N1CCN(CCCc2c[nH]c3ccc(F)cc23)CC1")
33.3
>>> test_result("COc1ccc(C(=O)N2CCN(CC(=O)N3CCN(CCCc4c[nH]c5ccc(F)cc45)CC3)CC2)cc1")
14.4

====

target: Acetylcholinesterase (Homo sapiens, UniProt P22303); assay: Inhibition of human plasma AChE using acetylthiocholine iodide as substrate preincubated for 15 mins followed by substrate addition and measured after 10 mins by Ellman's method
Sequence (P22303 whole entry): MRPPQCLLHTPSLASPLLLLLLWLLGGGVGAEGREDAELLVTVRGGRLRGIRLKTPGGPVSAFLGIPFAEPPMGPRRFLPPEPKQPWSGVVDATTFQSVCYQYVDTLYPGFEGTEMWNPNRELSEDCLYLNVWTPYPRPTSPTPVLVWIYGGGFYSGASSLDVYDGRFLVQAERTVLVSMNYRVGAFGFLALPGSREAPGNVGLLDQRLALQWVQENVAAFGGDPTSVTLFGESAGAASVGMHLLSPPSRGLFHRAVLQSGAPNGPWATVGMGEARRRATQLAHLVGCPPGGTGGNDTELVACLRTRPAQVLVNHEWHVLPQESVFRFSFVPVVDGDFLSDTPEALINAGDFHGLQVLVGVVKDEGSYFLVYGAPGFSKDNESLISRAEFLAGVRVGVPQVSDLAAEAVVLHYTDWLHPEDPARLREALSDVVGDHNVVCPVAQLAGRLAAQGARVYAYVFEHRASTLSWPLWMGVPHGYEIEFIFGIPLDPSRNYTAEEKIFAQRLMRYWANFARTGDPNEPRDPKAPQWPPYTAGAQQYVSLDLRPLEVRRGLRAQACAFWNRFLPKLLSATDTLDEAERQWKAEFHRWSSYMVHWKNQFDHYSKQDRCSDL
pIC50: −log10 of the molar value.
Recorded pIC50, one value per entry.
Outcome Measure: pIC50

>>> test_result("O=C(CN1CCN(C(=O)c2ccccc2F)CC1)N1CCN(CCCc2c[nH]c3ccccc23)CC1")
4.69
>>> test_result("O=C(CN1CCN(C(=O)c2cccc(Br)c2)CC1)N1CCN(CCCc2c[nH]c3ccccc23)CC1")
4.64
>>> test_result("O=C(CN1CCN(C(=O)c2ccc(F)cc2)CC1)N1CCN(CCCc2c[nH]c3ccc(F)cc23)CC1")
5.47
>>> test_result("O=C(CN1CCN(C(=O)c2ccc(Cl)cc2)CC1)N1CCN(CCCc2c[nH]c3ccc(F)cc23)CC1")
4.65
>>> test_result("O=C(CN1CCN(C(=O)c2cccc(Br)c2)CC1)N1CCN(CCCc2c[nH]c3ccc(F)cc23)CC1")
4.43
>>> test_result("O=C(CN1CCN(C(=O)c2ccc(F)cc2)CC1)N1CCN(CCCc2c[nH]c3ccccc23)CC1")
4.40
>>> test_result("COc1ccc2[nH]cc(CCCN3CCN(C(=O)CN4CCN(C(=O)c5cccc(F)c5)CC4)CC3)c2c1")
4.43
>>> test_result("O=C(CN1CCN(C(=O)c2ccc(Br)cc2)CC1)N1CCN(CCCc2c[nH]c3ccc(F)cc23)CC1")
4.40
>>> test_result("O=C(CN1CCN(C(=O)c2cccc(Cl)c2)CC1)N1CCN(CCCc2c[nH]c3ccc(F)cc23)CC1")
4.74
>>> test_result("O=C(CN1CCN(C(=O)c2cccc(Cl)c2)CC1)N1CCN(CCCc2c[nH]c3ccccc23)CC1")
4.49

====

Recorded IC50, one value per entry.
biological target: Sodium-dependent serotonin transporter (Homo sapiens, UniProt P31645); experiment: Displacement of [3H]paroxetine from human SERT expressed in human HEK293 cells incubated for 30 mins by liquid scintillation counting analysis
Sequence (P31645 whole entry): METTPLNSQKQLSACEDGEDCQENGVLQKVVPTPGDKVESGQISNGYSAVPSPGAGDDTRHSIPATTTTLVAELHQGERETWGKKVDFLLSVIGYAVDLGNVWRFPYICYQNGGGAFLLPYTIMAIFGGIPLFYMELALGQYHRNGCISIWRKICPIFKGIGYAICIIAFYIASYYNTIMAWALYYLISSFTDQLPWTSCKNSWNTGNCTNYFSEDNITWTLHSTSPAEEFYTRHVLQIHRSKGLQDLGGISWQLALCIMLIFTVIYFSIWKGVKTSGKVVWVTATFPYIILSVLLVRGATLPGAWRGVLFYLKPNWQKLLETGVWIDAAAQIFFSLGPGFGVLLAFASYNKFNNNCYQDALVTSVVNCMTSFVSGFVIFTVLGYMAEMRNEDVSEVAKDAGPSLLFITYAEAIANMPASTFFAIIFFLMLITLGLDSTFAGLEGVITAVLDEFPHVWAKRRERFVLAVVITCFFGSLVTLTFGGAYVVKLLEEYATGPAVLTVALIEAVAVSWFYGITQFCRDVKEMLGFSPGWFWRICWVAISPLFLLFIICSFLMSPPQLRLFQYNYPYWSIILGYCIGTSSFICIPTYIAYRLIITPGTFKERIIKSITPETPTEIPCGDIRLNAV
Outcome Measure: IC50

>>> test_result("O=C(CN1CCN(C(=O)c2cccc(F)c2)CC1)N1CCN(CCCc2c[nH]c3ccccc23)CC1")
"> 1000 µM"
>>> test_result("COc1cccc(C(=O)N2CCN(CC(=O)N3CCN(CCCc4c[nH]c5ccccc45)CC3)CC2)c1")
"> 1000 µM"
>>> test_result("O=C(CN1CCN(C(=O)c2ccc(F)cc2)CC1)N1CCN(CCCc2c[nH]c3ccccc23)CC1")
"> 1000 µM"
>>> test_result("Cc1ccc(C(=O)N2CCN(CC(=O)N3CCN(CCCc4c[nH]c5ccccc45)CC3)CC2)cc1")
"> 1000 µM"
>>> test_result("O=C(CN1CCN(C(=O)c2ccccc2)CC1)N1CCN(CCCc2c[nH]c3ccc(F)cc23)CC1")
"320 µM"
>>> test_result("COc1ccc(C(=O)N2CCN(CC(=O)N3CCN(CCCc4c[nH]c5ccccc45)CC3)CC2)cc1")
"> 1000 µM"
>>> test_result("COc1ccc2[nH]cc(CCCN3CCN(C(=O)CN4CCN(C(=O)c5ccc(F)cc5)CC4)CC3)c2c1")
"> 1000 µM"
>>> test_result("COc1ccc2[nH]cc(CCCN3CCN(C(=O)CN4CCN(C(=O)c5ccc(Cl)cc5)CC4)CC3)c2c1")
"> 1000 µM"
>>> test_result("O=C(CN1CCN(C(=O)c2ccccc2)CC1)N1CCN(CCCc2c[nH]c3ccccc23)CC1")
"> 1000 µM"
>>> test_result("O=C(CN1CCN(C(=O)c2ccc(Cl)cc2)CC1)N1CCN(CCCc2c[nH]c3ccc(F)cc23)CC1")
"546 µM"
>>> test_result("COc1ccc2[nH]cc(CCCN3CCN(C(=O)CN4CCN(C(=O)c5ccc(C)cc5)CC4)CC3)c2c1")
"> 1000 µM"
>>> test_result("COc1ccc(C(=O)N2CCN(CC(=O)N3CCN(CCCc4c[nH]c5ccc(F)cc45)CC3)CC2)cc1")
"133 µM"
>>> test_result("COc1ccc2[nH]cc(CCCN3CCN(C(=O)CN4CCN(C(=O)c5cccc(Cl)c5)CC4)CC3)c2c1")
"> 1000 µM"
>>> test_result("COc1cccc(C(=O)N2CCN(CC(=O)N3CCN(CCCc4c[nH]c5ccc(F)cc45)CC3)CC2)c1")
"83 µM"
>>> test_result("COc1cccc(C(=O)N2CCN(CC(=O)N3CCN(CCCc4c[nH]c5ccc(OC)cc45)CC3)CC2)c1")
"> 1000 µM"
>>> test_result("O=C(CN1CCN(C(=O)c2cccc(F)c2)CC1)N1CCN(CCCc2c[nH]c3ccc(F)cc23)CC1")
"69 µM"
>>> test_result("O=C(CN1CCN(C(=O)c2ccccc2Br)CC1)N1CCN(CCCc2c[nH]c3ccc(F)cc23)CC1")
"1.9 µM"

====

Recorded pIC50, one value per entry.
molecular target: Sodium-dependent serotonin transporter (Homo sapiens); assay: Displacement of [3H]paroxetine from human SERT expressed in human HEK293 cells incubated for 30 mins by liquid scintillation counting analysis; type: cell-based
pIC50: −log10 of the molar value.
Outcome Measure: pIC50

>>> test_result("COc1ccc2[nH]cc(CCCN3CCN(C(=O)CN4CCN(C(=O)c5cccc(F)c5)CC4)CC3)c2c1")
"< 3.00"
>>> test_result("O=C(CN1CCN(C(=O)c2ccc(Br)cc2)CC1)N1CCN(CCCc2c[nH]c3ccccc23)CC1")
"< 3.00"
>>> test_result("O=C(CN1CCN(C(=O)c2ccc(F)cc2)CC1)N1CCN(CCCc2c[nH]c3ccc(F)cc23)CC1")
3.67
>>> test_result("O=C(CN1CCN(C(=O)c2ccc(Cl)cc2)CC1)N1CCN(CCCc2c[nH]c3ccccc23)CC1")
"< 3.00"
>>> test_result("O=C(CN1CCN(C(=O)c2cccc(Cl)c2)CC1)N1CCN(CCCc2c[nH]c3ccccc23)CC1")
"< 3.00"
>>> test_result("O=C(CN1CCN(C(=O)c2cccc(Br)c2)CC1)N1CCN(CCCc2c[nH]c3ccccc23)CC1")
"< 3.00"
>>> test_result("COc1cc2c(cc1OC)C(=O)C(CC1CCN(Cc3ccccc3)CC1)C2 (configuration not stated) [DONEPEZIL]")
"< 3.00"
>>> test_result("COc1ccc2[nH]cc(CCCN3CCN(C(=O)CN4CCN(C(=O)c5ccccc5)CC4)CC3)c2c1")
"< 3.00"
>>> test_result("COc1ccc(C(=O)N2CCN(CC(=O)N3CCN(CCCc4c[nH]c5ccc(OC)cc45)CC3)CC2)cc1")
"< 3.00"
>>> test_result("Cc1ccc(C(=O)N2CCN(CC(=O)N3CCN(CCCc4c[nH]c5ccc(F)cc45)CC3)CC2)cc1")
3.91
>>> test_result("COc1ccc2[nH]cc(CCCN3CCN(C(=O)CN4CCN(C(=O)c5cccc(Br)c5)CC4)CC3)c2c1")
"< 3.00"
>>> test_result("O=C(CN1CCN(C(=O)c2ccccc2F)CC1)N1CCN(CCCc2c[nH]c3ccccc23)CC1")
"< 3.00"
>>> test_result("O=C(CN1CCN(C(=O)c2ccc(Br)cc2)CC1)N1CCN(CCCc2c[nH]c3ccc(F)cc23)CC1")
5.04
>>> test_result("O=C(CN1CCN(C(=O)c2cccc(Cl)c2)CC1)N1CCN(CCCc2c[nH]c3ccc(F)cc23)CC1")
3.83
>>> test_result("COc1ccc2[nH]cc(CCCN3CCN(C(=O)CN4CCN(C(=O)c5ccc(Br)cc5)CC4)CC3)c2c1")
"< 3.00"
>>> test_result("O=C(CN1CCN(C(=O)c2cccc(Br)c2)CC1)N1CCN(CCCc2c[nH]c3ccc(F)cc23)CC1")
3.74
>>> test_result("COc1ccc2[nH]cc(CCCN3CCN(C(=O)CN4CCN(C(=O)c5ccccc5Br)CC4)CC3)c2c1")
"< 3.00"
